- System: McCall soybeans
- protocol: CSVT with PVA-pearled McCall soybeans, relative length
- Assay type: in vivo, soybean
- assayContext: 2.5 mg in 1 ml 2.5% PVA per 100 seeds
assayMetric: Relative length (control = 100), germ

The cases that follow already have their Relative length (control = 100), germ on record.
Cl.O=[N+]([O-])c1ccccc1C(Cl)=NOCC(O)CN1CCCCC1 (stereo not shown) [Compound 4]    116
CCCCCCCCCCCCCCCC(=O)OC(CONC(=N)c1cccnc1)CN1CCCCC1.Cl (stereo not shown) [Compound 2]    133

Identify measured Relative length (control = 100), germ corresponding to CC(C)(C)NCC(O)CONC(=Nc1ccccc1)c1ccccc1.Cl (stereo not shown) [Compound 5]
127

Give recorded Relative length (control = 100), germ. CC(C)(C)NCC(O)CONC(=O)c1cccc(C(F)(F)F)c1.Cl (stereo not shown) [Compound 1]
106

* * *

- Tested on: maize of high chilling tolerance (HT) population
- protocol: CSVT, maize population of high chilling tolerance (HT)
- Type: in vivo
Marks after values point to notes of the source that are not given here.
assayMetric: Ratio of high vigour plants %, HT

Solved entries (count: 3):
CCCCCCCCCCCCCCCC(=O)OC(CONC(=N)c1cccnc1)CN1CCCCC1.Cl (stereo not shown) [Compound 2]    92* %
Cl.O=[N+]([O-])c1ccccc1C(Cl)=NOCC(O)CN1CCCCC1 (stereo not shown) [Compound 4]    96* %
CC(C)(C)NCC(O)CONC(=O)c1cccc(C(F)(F)F)c1.Cl (stereo not shown) [Compound 1]    98* %

Here is another compound to look at.
Indicate the recorded Ratio of high vigour plants %, HT value for this compound: Cl.O=[N+]([O-])c1cccc(C(Cl)=NOCCCN2CCCCC2)c1 [Compound 3]
94* %
